// values below are pIC50; system is ROCK2 (Homo sapiens)
Sequence (O75116 whole entry, species assumed): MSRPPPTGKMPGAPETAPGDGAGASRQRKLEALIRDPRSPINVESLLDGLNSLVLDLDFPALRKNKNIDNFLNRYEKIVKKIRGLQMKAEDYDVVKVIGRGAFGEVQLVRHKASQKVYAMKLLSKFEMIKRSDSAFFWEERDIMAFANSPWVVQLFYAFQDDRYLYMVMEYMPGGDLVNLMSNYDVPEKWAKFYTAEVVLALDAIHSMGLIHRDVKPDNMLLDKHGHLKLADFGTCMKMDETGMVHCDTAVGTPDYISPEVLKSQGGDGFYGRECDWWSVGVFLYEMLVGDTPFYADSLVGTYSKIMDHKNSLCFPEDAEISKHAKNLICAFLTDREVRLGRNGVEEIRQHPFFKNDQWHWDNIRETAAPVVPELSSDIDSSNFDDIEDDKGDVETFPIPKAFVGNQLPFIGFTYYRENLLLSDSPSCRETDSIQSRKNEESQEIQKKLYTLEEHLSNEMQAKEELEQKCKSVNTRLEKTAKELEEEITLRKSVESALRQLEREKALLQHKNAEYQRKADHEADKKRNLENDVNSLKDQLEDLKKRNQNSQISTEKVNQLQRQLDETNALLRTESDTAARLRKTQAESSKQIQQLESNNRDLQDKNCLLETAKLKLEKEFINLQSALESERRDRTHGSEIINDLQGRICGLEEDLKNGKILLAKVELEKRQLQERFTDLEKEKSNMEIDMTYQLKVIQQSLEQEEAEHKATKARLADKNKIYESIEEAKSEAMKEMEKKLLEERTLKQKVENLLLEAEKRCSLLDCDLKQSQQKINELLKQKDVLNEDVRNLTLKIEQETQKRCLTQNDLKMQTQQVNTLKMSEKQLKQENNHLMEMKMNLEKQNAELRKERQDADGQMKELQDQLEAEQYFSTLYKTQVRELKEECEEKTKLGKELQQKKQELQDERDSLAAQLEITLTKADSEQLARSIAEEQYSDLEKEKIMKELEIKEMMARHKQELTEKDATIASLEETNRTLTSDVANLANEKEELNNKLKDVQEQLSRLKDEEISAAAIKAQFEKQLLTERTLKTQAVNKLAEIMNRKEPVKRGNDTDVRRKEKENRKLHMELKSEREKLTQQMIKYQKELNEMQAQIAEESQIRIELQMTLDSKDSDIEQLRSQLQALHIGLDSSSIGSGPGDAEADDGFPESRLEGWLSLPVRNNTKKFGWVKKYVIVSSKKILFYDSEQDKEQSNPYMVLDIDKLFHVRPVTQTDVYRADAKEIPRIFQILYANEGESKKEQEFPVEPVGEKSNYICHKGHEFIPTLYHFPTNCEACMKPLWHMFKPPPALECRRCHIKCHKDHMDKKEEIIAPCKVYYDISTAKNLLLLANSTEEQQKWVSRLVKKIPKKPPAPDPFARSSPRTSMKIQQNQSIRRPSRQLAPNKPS
pIC50: −log10 of the molar value.

* Cc1cc(N2CCN(Cc3cccc(OCC4CC4)c3)C2=O)ccc1-c1cn[nH]c1 | 6.70 to 7.70
* COc1cc(F)cc(CN2CCN(c3ccc(-c4cn[nH]c4)c(C4CC4)c3)C2=O)c1 | 6.70 to 7.70
* COc1nc(N2CCN(Cc3cccc(OC(F)F)c3)C2=O)ccc1-c1cn[nH]c1 | 7.70 to 8.68

# input for lookup
Lookup: Give pIC50 (ROCK2 (Homo sapiens)) of the following compound: COc1cccc(CN2C(=O)N(c3ccc(-c4cn[nH]c4)c(OC)c3)CC2CO)c1 (stereo not shown)
Found: > 8.70

* * *

target: ROCK2 (Homo sapiens); test: ROCK2 kinase inhibition assay (Caliper LABCHIP, FITC peptide substrate); format: biochemical; details: 5 μM ATP, 1.5 μM peptide substrate; value ranges
pIC50: −log10 of the molar value. Structures can show the parent of a compound that is named as a salt.
Recorded pIC50 by entry

These solved cases illustrate the format of a correct answer.
• COc1cc(F)cc(CN2C(=O)N(c3ccc(-c4cn[nH]c4)cn3)C[C@@H]2CO)c1 = 6.70 to 7.70
• CCc1nc(N2CCN(C(C)c3ccc(F)c(OC)c3)C2=O)ccc1-c1cn[nH]c1 (single isomer, unassigned) [Example 270] = 7.70 to 8.68
• CC(c1ccccc1)n1ccn(-c2ccc(-c3cn[nH]c3)cc2)c1=O (stereo not drawn) = 6.70 to 7.70
• COc1cc(C(C)n2ccn(-c3ccc(-c4cn[nH]c4)cc3)c2=O)ccc1F (single isomer, unassigned) = 5.70 to 6.70
• COc1cc(F)cc(C(C)N2CCN(c3ccc(-c4cn[nH]c4)c(OC)n3)C2=O)c1 (single isomer, unassigned) = 7.70 to 8.68

Lookup: I have this molecule here, COc1cccc(C(CO)N2CCN(c3ccc(-c4cn[nH]c4)c(C)c3)C2=O)c1 (single isomer, unassigned) [Example 164] , and I need its recorded pIC50.
Found: 5.70 to 6.70

Lookup: I have this molecule here, COc1cc(N2CCN(Cc3ccccc3)C2=O)ccc1-c1cn[nH]c1 , and I need its recorded pIC50.
Found: 6.70 to 7.70

Lookup: I have this molecule here, COc1cc(C(C)n2ccn(-c3ccc(-c4cn[nH]c4)c(OC)n3)c2=O)ccc1F (single isomer, unassigned) [Example 389] , and I need its recorded pIC50.
Found: > 8.70

Lookup: I have this molecule here, COc1nc(-n2ccn(Cc3cccc(F)c3OC)c2=O)ccc1-c1cn[nH]c1 , and I need its recorded pIC50.
Found: 7.70 to 8.68

Lookup: I have this molecule here, COc1cccc(C(CO)N2CCN(c3ccc(-c4cn[nH]c4)c(C)n3)C2=O)c1 (single isomer, unassigned) , and I need its recorded pIC50.
Found: 6.70 to 7.70

Lookup: I have this molecule here, O=C1N(Cc2ccccc2)CCN1c1ccc(-c2ccncc2)cc1 [Example 55, TFA] , and I need its recorded pIC50.
Found: 6.70 to 7.70

Lookup: I have this molecule here, CC(c1cccc(OCC2CC2)c1)n1ccn(-c2ccc(-c3cn[nH]c3)cc2)c1=O (single isomer, unassigned) [Example 357] , and I need its recorded pIC50.
Found: 6.70 to 7.70

Lookup: I have this molecule here, O=C1N(Cc2ccccc2F)CCN1c1ccc(-c2ccncc2)cc1 [Example 57, TFA] , and I need its recorded pIC50.
Found: 5.70 to 6.70

Lookup: I have this molecule here, COc1nc(-n2ccn(Cc3cc(F)ccc3F)c2=O)ccc1-c1cn[nH]c1 , and I need its recorded pIC50.
Found: 7.70 to 8.68

Lookup: I have this molecule here, COc1cccc(CN2C(=O)N(c3ccc(-c4cn[nH]c4)cc3)CC2CO)c1 (single isomer, unassigned; (+)) , and I need its recorded pIC50.
Found: > 8.70
